testedSystem: full-length beta-Catenin (Uniprot ID P35222) (Homo sapiens (Human)) (UniProt P35222)
assayExplanation: fluorescence polarization competition against 5FAM-TCF4 10-53 on full-length beta-catenin
Starred links: 1 amine or outer side, 2 acyl side, 3 side chain; linkers in the order of their positions; H or OH if unused. Positions of bridges follow the written chain, without caps; N, C: chain ends. Non-standard residues stand in square brackets, D forms with d. Primed or numbered codes have the meaning given here. *: point of attachment. PyrS2″ = (S)-3-amino-1-((pent-4-en-1-yloxy)carbonyl)pyrrolidine-3-carboxylic acid (stapling residue), C=CCCCOC(=O)N1CC[C@@](N[*:1])(C(=O)[*:2])C1; B5(4) = 2,2-bis(4-pentenyl)glycine = 2-amino-2-(pent-4-en-1-yl)hept-6-enoic acid (stitching residue), C=CCCCC(CCCC=C)(N[*:1])C(=O)[*:2]; TfeGA = (S)-2-amino-3-((carboxymethyl)(2,2,2-trifluoroethyl)amino)propanoic acid, O=C([C@H](CN(CC(=O)[*:3])CC(F)(F)F)N[*:1])[*:2]; PyrS2 = (S)-3-amino-1-((pent-4-en-1-yloxy)carbonyl)pyrrolidine-3-carboxylic acid, C=CCCCOC(=O)N1CC[C@@](N[*:1])(C(=O)[*:2])C1; B5(19) = 2-amino-2-(pent-4-en-1-yl)hept-6-enoic acid (bis(4-pentenyl)glycine), C=CCCCC(CCCC=C)(N[*:1])C(=O)[*:2]; MePpzAsn = (S)-2-amino-4-(4-methylpiperazin-1-yl)-4-oxobutanoic acid, CN1CCN(C(=O)C[C@H](N[*:1])C(=O)[*:2])CC1; F2PipNva = (S)-2-amino-5-(4,4-difluoropiperidin-1-yl)pentanoic acid, O=C([C@H](CCCN1CCC(F)(F)CC1)N[*:1])[*:2]; MorphAsn = (S)-2-amino-4-morpholino-4-oxobutanoic acid, O=C(C[C@H](N[*:1])C(=O)[*:2])N1CCOCC1; B5(3) = 2,2-bis(4-pentenyl)glycine (stitching residue), C=CCCCC(CCCC=C)(N[*:1])C(=O)[*:2]; Nva(5-morpholino) = N[C@@H](CCCN1CCOCC1)C(=O)O; Phe(3-COOH) = N[C@@H](Cc1cccc(C(=O)O)c1)C(=O)O; 2F3MeF = Cc1cccc(C[C@H](N[*:1])C(=O)[*:2])c1F; Phe(2-Cl) = N[C@@H](Cc1ccccc1Cl)C(=O)O; Bta = N[C@@H](Cc1csc2ccccc12)C(=O)O; Lys(iPr) = CC(C)NCCCC[C@H](N)C(=O)O; hTyr = N[C@@H](CCc1ccc(O)cc1)C(=O)O; αAllylPro = C=CC[C@@]1(C(=O)O)CCCN1; tBuAla = CC(C)(C)C[C@H](N)C(=O)O; 3Thi = N[C@@H](Cc1ccsc1)C(=O)O; Butoxycarbonyl = CCCCOC(=O)*; R5 = C=CCCC[C@@](C)(N)C(=O)O; S5 = C=CCCC[C@](C)(N)C(=O)O; hSer = N[C@@H](CCO)C(=O)O; Aib = CC(C)(N)C(=O)O
endpoint: pIC50
The quantity pIC50 is defined as the negative base-10 logarithm of the molar concentration.

Answer with reported pIC50 of Ac-[αAllylPro]D[tBuAla][B5(19)]D[hTyr]AAF[hSer][PyrS2][3Thi][Bta]Q-NH2 (staple 1-4, 4-11) [I-1786]
7.38

Provide only the value of recorded pIC50 for Ac-[αAllylPro]D[tBuAla][S5]DD[Aib]AF[R5]A[3Thi][Bta][S5]A-NH2 (staple (positions not given here); not fully specified; printed as Ac-PL3-Asp-Npg-S5-Asp-Asp-Aib-Ala-Phe-R5-Ala-3Thi-BztA-S5-Ala-NH2; also: staple pairing among PL3 1, S5 4, R5 10, S5 14 not given here) [I-1781]
5.07

Output measured pIC50 for this item: Ac-[αAllylPro]D[tBuAla][B5(3)]D[TfeGA]AAFT[PyrS2][Phe(2-Cl)][Bta][Nva(5-morpholino)]-NH2 (staple 1-4, 4-11) [I-1609]
7.82

Fill in pIC50 for record Ac-[αAllylPro]D[tBuAla][B5(19)]DYAAFL[PyrS2][3Thi][Bta]Q-NH2 (staple 1-4, 4-11) [I-1784]
6.28

Please report the measured pIC50 for Ac-[αAllylPro]D[tBuAla][B5(3)]D[Phe(3-COOH)]AAFL[PyrS2][2F3MeF][Bta][Nva(5-morpholino)]-NH2 (staple 1-4, 4-11) [I-1610]
7.72

Name the recorded pIC50 of the item Ac-[αAllylPro]N[tBuAla][B5(4)]DT[Lys(iPr)]AFS[PyrS2]F[Bta]Q-NH2 (staple 1-4, 4-11) [I-1601] in your answer.
5.70

Tell me measured pIC50 for Ac-[αAllylPro]D[tBuAla][S5]DDAAF[R5]A[3Thi][Bta][S5]A-NH2 (staple (positions not given here); not fully specified; printed as Ac-PL3-Asp-Npg-S5-Asp-Asp-Ala-Ala-Phe-R5-Ala-3Thi-BztA-S5-Ala-NH2; also: staple pairing among PL3 1, S5 4, R5 10, S5 14 not given here) [I-1778] please.
5.68

Output measured pIC50 for this item: Ac-[αAllylPro]D[tBuAla][B5(3)]D[TfeGA]AAFT[PyrS2″][Phe(2-Cl)][Bta][MorphAsn]-NH2 (staple 1-4, 4-11) [I-1613]
8.05

Output measured pIC50 for this item: Ac-[αAllylPro]D[tBuAla][B5(3)]D[TfeGA]AAFT[PyrS2″][Phe(2-Cl)][Bta][Lys(iPr)]-NH2 (staple 1-4, 4-11) [I-1615]
8.05

Report pIC50, nothing else, for this binder: Ac-[αAllylPro]D[tBuAla][B5(3)]DHAAF[hSer][PyrS2″][3Thi][Bta]Q-NH2 (staple 1-4, 4-11; not fully specified; printed as Ac-PL3-Asp-Npg-B5-Asp-His-Ala-Ala-Phe-Hse-PyrS2-3Thi-BztA-Gln-NH2) [I-1794]
7.28

Give a short answer stating reported pIC50 for Ac-[αAllylPro]N[tBuAla][B5(4)]DT[Lys(iPr)]AFF[PyrS2]F[Bta]Q-NH2 (staple 1-4, 4-11) [I-1599] .
5.97

For the binder Ac-[αAllylPro]D[tBuAla][B5(3)]D[TfeGA]AAFT[PyrS2″][Phe(2-Cl)][Bta][MePpzAsn]-NH2 (staple 1-4, 4-11) [I-1611] , give its reported pIC50.
8.00

Tell me measured pIC50 for Ac-[αAllylPro]D[tBuAla][B5(4)]D[TfeGA]AAFT[PyrS2][Phe(2-Cl)][Bta][F2PipNva]-NH2 (staple 1-4, 4-11) [I-1607] please.
7.31

Tell me its pIC50 given Butoxycarbonyl-[αAllylPro]D[tBuAla][B5(4)]DDAAFQ[PyrS2″][3Thi][Bta]H-NH2 (staple 1-4, 4-11) [I-2363] as the entry.
7.36

Tell us which pIC50 value is on record for Ac-[αAllylPro]D[tBuAla][B5(4)]D[Phe(3-COOH)]AAFL[PyrS2][2F3MeF][Bta][F2PipNva]-NH2 (staple 1-4, 4-11) [I-1608]
7.12

Origin of measurements: patent US20240116985A1
